# Tested on: symbiotic zooxanthellae released from coral nubbins
# assay-summary: Zooxanthellae counts: zooxanthellae released in water surrounding coral nubbins
# Assay type: in vivo, Acropora sp.
# run-conditions: of total released, end of incubation
Percentage of healthy zooxanthellae released: recorded values
Just the number please, in %, no unit attached.

Illustrative cases are given below, each with its answer.
compound: CC(=O)Oc1c(C)c(C)c2c(c1C)CCC(C)(CCC[C@H](C)CCC[C@H](C)CCCC(C)C)O2 (mixture of isomers) [System D17, DL-tocopherol-acetate]
scale-unit: %
readout-number: 3
//
compound: Cc1c(C)c2c(c(C)c1O)CC[C@@](C)(CCC[C@H](C)CCC[C@H](C)CCCC(C)C)O2 [System D16, Alpha-tocopherol]
scale-unit: %
readout-number: 15

Consider now this further compound.
Incoming: Hello, please tell me recorded Percentage of healthy zooxanthellae released for this one: CO[C@@]12[C@H](COC(N)=O)C3=C(C(=O)C(C)=C(N)C3=O)N1C[C@@H]1N[C@@H]12 [MITO, Mitomycin C, reference compound]
Outgoing: 0
